- Tested on: HL-60
- procedure_details: NCI tumour cell line growth inhibition, 48 h
Calls of active or inactive are those of the source. Cut-off read from the data, not from the text of the source: active = GI50 up to about 1.1 µM and inactive = higher. *1 amine or outer side, *2 acyl side, *3 side chain or, on linkers, in order; H or OH if unused. Where a SMILES comes first, the peptide text is derived from it. Bridges are numbered along the chain shown (N, C = ends). Roman numbers before positions name the chains, in order. [ ]: non-standard residue; d: D form. Actinocin(9to1) = Cc1c2oc3c(C)ccc(C(=O)[*:1])c3nc-2c(C(=O)[*:2])c(N)c1=O; NMeV = CN[CH](C(=O)O)C(C)C; Sar = CNCC(=O)O
Your reply should match one of these outcome classes. 1 (yes) (active), 0 (no) (inactive)

Would you mind telling me which call this test gave COc1ccc(C2SC(=N)Nc3c2c(C)nn3C(=O)Cc2ccccc2)cc1 (stereo unspecified) ?
0 (no)

Would you mind telling me which call this test gave Cc1ccccc1N(CCC#N)C1=NN(C(=O)CC(=O)Nc2ccccc2)C(c2ccccc2)C1 (stereo unspecified) ?
0 (no)

Would you mind telling me which call this test gave CCN(CC)C(=O)Cn1c(C)cc2ccccc21 ?
0 (no)

Would you mind telling me which call this test gave C[C@H](CCC(=O)O)[C@H]1CC[C@H]2[C@@H]3[C@@H](O)C[C@@H]4C[C@H](O)CC[C@]4(C)[C@H]3CC[C@]12C ?
0 (no)

Would you mind telling me which call this test gave COC(=O)c1cc2cc(OC)c(OC)cc2cc(C(=O)OC)c1=O ?
0 (no)

Would you mind telling me which call this test gave O=C(c1ccco1)n1c2ccc(Br)cc2c2nc3ccccc3nc21 ?
0 (no)

Would you mind telling me which call this test gave O=C(N/C(=C\c1cc(Cl)ccc1Cl)c1nc2cc(Cl)ccc2[nH]1)c1ccccc1 ?
0 (no)

Would you mind telling me which call this test gave CC(=O)Nc1ccc2c3c(cc(O)c2c1)N(C(=O)CCCCC(=O)Nc1ccc2c4c(cc(O)c2c1)N(C(=O)OC(C)(C)C)CC4CCl)CC3CCl (stereo unspecified) ?
1 (yes)

Would you mind telling me which call this test gave C=CC/N=C1\NC(=O)C(CC(=O)Nc2ccc(C)cc2)S1 (stereo unspecified) ?
0 (no)

Would you mind telling me which call this test gave O=c1[nH]c(Br)nc2[nH]nnc12 ?
0 (no)

Would you mind telling me which call this test gave CN(C)P(=O)(/C(N)=N/Nc1ccc([N+](=O)[O-])cc1)N(C)C ?
0 (no)

Would you mind telling me which call this test gave C[C@@]12[C@H]3CC[C@@H]1[C@H](O)C(=O)N2CC3 ?
0 (no)

Would you mind telling me which call this test gave O=C1C(Cl)=C(N2CCN(CCOCCO)CC2)C(=O)c2c(O)ccc(O)c21 ?
1 (yes)

Would you mind telling me which call this test gave N#CC(C(=O)/C(=N/N)C(C#N)c1ccccc1)c1ccccc1 (stereo unspecified) ?
0 (no)

Would you mind telling me which call this test gave COc1ccc(N2C(=O)CC(c3c[nH]c4ncccc34)C2=O)cc1 (stereo unspecified) ?
0 (no)

Would you mind telling me which call this test gave CCOC(=O)NC(OCc1ccccc1)(C(=O)OC)C(F)(F)F (stereo unspecified) ?
0 (no)

Would you mind telling me which call this test gave CN(C)CCCNc1c2c(=O)n(C)c(=O)nc-2n(C)c2ccccc12 ?
1 (yes)

Would you mind telling me which call this test gave COC(=NC(C)C)NC(C)C ?
0 (no)

Would you mind telling me which call this test gave C=C(C)[C@@H]1CC[C@]2(C)CC[C@]3(C)[C@H](CC[C@@H]4[C@@]5(C)CC[C@H](O)C(C)(C)[C@@H]5CC[C@]43C)[C@@H]12 ?
0 (no)

Would you mind telling me which call this test gave Cc1ccc(Nc2c(C#N)[n+]([O-])c3cc(Cl)ccc3[n+]2[O-])cc1 ?
0 (no)

Would you mind telling me which call this test gave CC(C)(C)OC(=O)NCCC1SC2C=CC1C2 (stereo unspecified) ?
0 (no)

Would you mind telling me which call this test gave N#C[BH2-][n+]1cn(C2CC(O)C(COP(=O)(O)OC3CC(n4c[n+]([BH2-]C#N)c5c(=O)[nH]c(N)nc54)OC3CO)O2)c2nc(N)[nH]c(=O)c21 (stereo unspecified) ?
0 (no)

Would you mind telling me which call this test gave O=c1c2nc[nH]c2n(-c2ccccc2)c(=S)n1-c1ccccc1 ?
0 (no)

Would you mind telling me which call this test gave Cc1cccc2c1CC1(Cc3c(C)cccc3C1=O)C2=O ?
0 (no)

Would you mind telling me which call this test gave COC1C(OC(=O)c2ccc(C)[nH]2)C(O)C(Oc2ccc3c(O)c(NC(=O)c4c[nH]c(C(=O)Nc5c(O)c6ccc(OC7OC(C)(C)C(OC)C(OC(=O)c8ccc(C)[nH]8)C7O)c(C)c6oc5=O)c4C)c(=O)oc3c2C)OC1(C)C (stereo unspecified) ?
0 (no)

Would you mind telling me which call this test gave CC1=NN(C(=O)c2ccccc2O)C(=O)/C1=C/c1cccc(O)c1 ?
0 (no)

Would you mind telling me which call this test gave Cc1c2oc3c(C)ccc(C(=O)NC4C(=O)NC(C(C)C)C(=O)N5CCCC5C(=O)N(C)CC(=O)N(C)C(C(C)C)C(=O)OC4C)c3nc-2c(C(=O)NC2C(=O)NC(C(C)C)C(=O)N3CCCC3C(=O)N(C)CC(=O)N(C)C(C(C)C)C(=O)OC2C)c(N)c1=O (stereo unspecified) (I: TVP[Sar][NMeV] / II: TVP[Sar][NMeV]; ester I:1-I:C, II:1-II:C; linker I:N-II:N via Actinocin(9to1); configuration not given here) ?
1 (yes)

Would you mind telling me which call this test gave COc1ccc2nc3cccc([N+](=O)[O-])c3c(NCCC(=O)O)c2c1 ?
0 (no)

Would you mind telling me which call this test gave CCN(CC)c1ccc(C2NC(=O)c3ccccc3N2)cc1 (stereo unspecified) ?
1 (yes)

Would you mind telling me which call this test gave NCC(NC(=O)OCc1ccccc1)C(=O)O (stereo unspecified) ?
0 (no)

Would you mind telling me which call this test gave CN(C)CCNC(=O)c1ccc(Cl)c2c(Nc3ccc(S(N)(=O)=O)cc3)c3ccccc3nc12 ?
1 (yes)

Would you mind telling me which call this test gave N#CCCn1[nH]c(=O)c(Cl)c(Cl)c1=O ?
0 (no)

Would you mind telling me which call this test gave O=C1CSC(c2c[nH]c3ccccc23)N1c1ccc(Cl)cc1Cl (stereo unspecified) ?
0 (no)

Would you mind telling me which call this test gave Fc1ccc2c(c1)SC1=Nc3sc4cc(F)ccc4[n+]3CN12 ?
1 (yes)

Would you mind telling me which call this test gave COc1cc(C(=O)C/C(CCC(=O)Nc2ccc(Cl)cc2Cl)=N/Nc2nnc(C)n2N)ccc1O ?
0 (no)

Would you mind telling me which call this test gave CC(C)(C)Nc1noc(=O)n1C(C)(C)C ?
0 (no)

* * *

Provide the recorded GI50 for the entries that follow.
- Tested on: NCI-H23
- procedure_details: NCI tumour cell line growth inhibition, 48 h
Active and inactive are the calls of the source. Cut-off read from the data, not from the text of the source: active = GI50 up to about 1.1 µM and inactive = higher.

For the compound shown here, CCOC(=O)C(O)(C(=O)OCC)c1cc(C(C)(C)C)c(O)c(C(C)(C)C)c1 , give the reported GI50.
43.6 µM (inactive)

For the compound shown here, CN(C)CCCNc1c2c(=O)n(C)c(=O)nc-2n(C)c2ccccc12 , give the reported GI50.
7.41 µM (inactive)

For the compound shown here, O=C(O)C1=CNC(C(=O)O)=NN1 , give the reported GI50.
> 100 µM (inactive)

For the compound shown here, c1ccc2c(c1)CCCC/C2=N/OCC1CO1 (stereo unspecified) , give the reported GI50.
41.8 µM (inactive)

For the compound shown here, CC(=O)CC(=O)c1cc2c(=O)oc(C)cc2oc1=O , give the reported GI50.
> 37.5 µM (inactive)

For the compound shown here, CC(C)(CC(=O)Nc1ccccc1)C(=O)O , give the reported GI50.
> 100 µM (inactive)

For the compound shown here, COc1ccc(/C=C2\N=C(c3ccccc3)N(NC3=NC(=O)CC(=O)N3)C2=O)cc1 , give the reported GI50.
> 100 µM (inactive)

For the compound shown here, CCOC(=O)C1=C(N2CCCC2)C(=O)C(C(=O)OCC)C1 (stereo unspecified) , give the reported GI50.
> 100 µM (inactive)

For the compound shown here, O=C(NC(CCCCN1C(=O)c2ccccc2C1=O)P(=O)(Oc1ccccc1)Oc1ccccc1)OCc1ccccc1 (stereo unspecified) , give the reported GI50.
7.33 µM (inactive)

For the compound shown here, COc1cc2c(cc1OCc1ccccc1)CNCC2 , give the reported GI50.
> 100 µM (inactive)

For the compound shown here, FC(F)(F)c1ccc(Cc2nc3cc4ccccc4cc3[nH]2)cc1 , give the reported GI50.
> 100 µM (inactive)

* * *

- Tested on: KM12
- procedure_details: NCI tumour cell line growth inhibition, 48 h
The source made the active and inactive calls. Rule as the data show it: active = GI50 up to about 1.1 µM and inactive = higher.
Your reply should match one of these outcome classes. y for active, n for inactive

Would you mind telling me which call this test gave COC(=O)C(C/C=C(\C)c1ccc(Cl)cc1)C(C)=O (stereo not given) ?
n

Would you mind telling me which call this test gave NCCCOc1ccc([N+](=O)[O-])cc1Cl ?
n

Would you mind telling me which call this test gave CC(=O)Nc1ccc(NC(=O)CC(=O)Nc2ccc(NC(C)=O)cc2)cc1 ?
n

Would you mind telling me which call this test gave COc1cc2c(cc1OCc1ccccc1)CNCC2 ?
n

Would you mind telling me which call this test gave CSc1nc(Cl)c2c(n1)Sc1nc3ccccc3n1N=C2 ?
n

Would you mind telling me which call this test gave Cc1cccc(NS(=O)(=O)c2ccc3c(c2)OCCOCCOCCOCCO3)c1 ?
n

Would you mind telling me which call this test gave CCCCCCCCCCCCCCCC(=O)Nc1ccn(C2OC(CO)C(O)C2O)c(=O)n1 (stereo not given) ?
n

Would you mind telling me which call this test gave CC1CCc2sc3nc(S)n(C)c(=O)c3c2C1 (stereo not given) ?
n

Would you mind telling me which call this test gave COC(=O)c1ccccc1C1=C([N+](=O)[O-])C(c2cccc(Br)c2)C(C#N)=C(N)O1 (stereo not given) ?
n

Would you mind telling me which call this test gave O=C1c2cccc3cc4ccccc4c(c23)C(=O)N1CCCNCCNCCCN1C(=O)c2cccc3cc4ccccc4c(c23)C1=O ?
y

Would you mind telling me which call this test gave CCCC#CCOC(=O)c1cc([N+](=O)[O-])cc([N+](=O)[O-])c1 ?
n

Would you mind telling me which call this test gave C=C(C)[C@H]1C=C[C@@H](OC(C)=O)[C@@]2(COC(C)=O)[C@H](OC(=O)CCC)[C@H]3[C@@H](OC(C)=O)[C@@H](C)C[C@]3(O)C(=O)[C@@](C)(OC(C)=O)[C@H]12 ?
n

Would you mind telling me which call this test gave CCN1C[C@]2(C)CC[C@H](OC)C34C1C([C@H](OC(C)=O)[C@@H]32)[C@@]1(OC)C[C@H](OC)[C@H]2C[C@@H]4[C@@H]1[C@H]2O ?
n

Would you mind telling me which call this test gave O=C1c2ccccc2C(=O)C2C3c4ccccc4C(c4ccccc43)C12 (stereo not given) ?
n

Would you mind telling me which call this test gave COc1cc2oc(-c3ccccc3)cc(=O)c2c(O)c1C ?
n

Would you mind telling me which call this test gave C=CC/N=C1\NC(=O)C(CC(=O)Nc2ccc(C)cc2)S1 (stereo not given) ?
n

Would you mind telling me which call this test gave COc1cc(O)c2c(c1)C(O)C(O)CC1OC1C(=O)/C=C/CC(C)OC2=O (stereo not given) ?
n

Would you mind telling me which call this test gave O=C(c1ccccc1)c1c(CNCc2ccccc2)n(C(=O)c2ccccc2)c2ccccc12 ?
n

Would you mind telling me which call this test gave CCC1CC(C)C(O)/C=C/C=C/CC(C)OC(=O)CC(O)C(OC)C1OC1OC(C)CC(O)(C(C)=O)C1O (stereo not given) ?
n

Would you mind telling me which call this test gave O=C1c2ccccc2-c2c1c1ccccc1c(=O)n2-c1cccnc1 ?
n

Attribution: ChEMBL document CHEMBL1201862
